tested on: HSP-90 (heat shock protein 90); assay: Determination of affinity for HSP-90 (elution from purine affinity column); assay type: binding; parameters: key: +++ stands for very high; ++ for high; + for moderate
measured.quantity: relative binding affinity to HSP-90

Example cases with answers are listed next.
Query string: Need relative binding affinity to HSP-90 of NC(=O)c1ccc(-n2ccc3ccccc32)c(Cl)c1 [Compound 46, 3-chloro-4-(1H-indol-1-yl)benzamide] , thanks.
Result string: ++

Query string: Need relative binding affinity to HSP-90 of CC(=O)c1ccc(-c2ccc(C#N)c(NC3CCC(O)CC3)c2)s1 (centres unmarked) , thanks.
Result string: ++

Query string: Need relative binding affinity to HSP-90 of Cc1cc(=O)c2c(C)nn(-c3ccc(C(N)=O)c(NC4CCOCC4)c3)c2o1 , thanks.
Result string: +++

Query string: Need relative binding affinity to HSP-90 of N#Cc1ccc(-c2ccc3n2CCCC3=O)cc1NC1CCC(O)CC1 (centres unmarked) , thanks.
Result string: +++

Query string: Need relative binding affinity to HSP-90 of COc1ccc2ccn(-c3ccc(C#N)c(N[C@H]4CC[C@H](O)CC4)c3)c2c1 , thanks.
Result string: +++

Query string: Need relative binding affinity to HSP-90 of COCC(C)Nc1cc(-n2cc(C)c(C(C)=O)c2C)ccc1C(N)=O (centres unmarked) , thanks.
Result string: ++

New cases:
Query string: Need relative binding affinity to HSP-90 of COc1cc2ccn(-c3ccc(C#N)c(Nc4ccccc4)c3)c2cc1OC , thanks.
Result string: +

Query string: Need relative binding affinity to HSP-90 of Cc1nn(-c2ccc(C(N)=O)c(NC3CCOCC3)c2)c2nc[nH]c(=O)c12 , thanks.
Result string: +

Where these numbers come from: patent US20080119457A1
